Collected inhibition in vivo at 0.1 mg/kg values appear next to each entry.
Test system: hamsters fed a high cholesterol diet
Test protocol: Measurement of lipid lowering effect in hamsters fed a high cholesterol diet
Assay type: in vivo, Male Golden Syrian hamsters
Measurement context: Mesocricetus auratus, po, 168 h, dose 0.1 mg/kg, gavage once daily, 7 days; read-out: serum TC lowering effect (suppression rate of an increase in serum TC concentration)

| Mol | Measured on | Result |
| --- | --- | --- |
| Cc1cc(O)ccc1[C@@H]1[C@@H](SC[C@H](O)c2ccc(F)cc2)C(=O)N1c1ccc(-c2cncnc2)cc1 | hamsters fed a high cholesterol diet | ≥ 50% |

Prompt: Reported inhibition in vivo at 0.1 mg/kg for Cc1ccc([C@@H](O)CS[C@H]2C(=O)N(c3ccc(-c4cccnc4)cc3)[C@@H]2c2ccc(O)cc2)cc1 : what is it?
Completion: ≥ 50%

Prompt: Reported inhibition in vivo at 0.1 mg/kg for N#Cc1cncc(-c2ccc(N3C(=O)[C@H](SC[C@H](O)c4ccc(Cl)cc4)[C@H]3c3ccc(O)cc3O)cc2)c1 : what is it?
Completion: ≥ 50%
